Tested on: Galium (catchweed bedstraw, Galium aparine)
procedure_details: Test A postemergence
Type: in vivo
assay_conditions: 125 g ai/ha, postemergence; visual injury rating on 0 to 100 scale (0 no effect, 100 complete control), approx. 10 d
Everything with Galium plant response rating lower than 50 is condition not met; everything else, including exactly 50, is condition met.

Answer whether Galium plant response rating of CCc1ccc(C2CNC(=O)C2C(=O)Nc2ccccc2F)cc1 (stereo not shown) [Compound 466] is greater than or equal to 50. condition not met

Answer whether Galium plant response rating of CN1CC(c2ccc3c(c2)OC(F)(F)O3)C(C(=O)Nc2ccccc2S(C)(=O)=O)C1=O (stereo not shown) [Compound 443] is greater than or equal to 50. condition not met

Answer whether Galium plant response rating of COc1ccc(NC(=O)C2C(=O)NCC2c2cccc(OC(F)F)c2)c(F)c1 (stereo not shown) [Compound 425] is greater than or equal to 50. condition not met

Answer whether Galium plant response rating of O=C1NCC(c2cc(Br)cs2)C1C(=O)Nc1cccc(F)c1F (racemic) [Compound 510] is greater than or equal to 50. condition not met

Answer whether Galium plant response rating of CC(=O)c1ccccc1NC(=O)C1C(=O)NCC1c1ccc(F)c(F)c1 (stereo not shown) [Compound 418] is greater than or equal to 50. condition not met

Answer whether Galium plant response rating of CN1CC(c2ccc(Cl)cc2)C(C(=O)Nc2cccc(F)c2F)C1=O (stereo not shown) [Compound 434] is greater than or equal to 50. condition met

Answer whether Galium plant response rating of O=C1NCC(c2cccc(F)c2F)C1C(=O)Nc1ccc(F)cc1F (stereo not shown) [Compound 495] is greater than or equal to 50. condition not met

Answer whether Galium plant response rating of C=C(Cl)CN1CC(c2cccc(C(F)(F)F)c2)C(C(=O)Nc2cccc(F)c2F)C1=O (stereo not shown) [Compound 480] is greater than or equal to 50. condition not met

Answer whether Galium plant response rating of COCc1cccc(C2CNC(=O)C2C(=O)Nc2ccccc2F)c1 (stereo not shown) [Compound 496] is greater than or equal to 50. condition not met

Answer whether Galium plant response rating of O=C1NCC(c2ccc(F)cc2F)C1C(=O)Nc1ccc(F)cc1F (racemic) [Compound 518] is greater than or equal to 50. condition not met

Answer whether Galium plant response rating of O=C1NCC(c2cccc(F)c2F)C1C(=O)Nc1cccc(F)c1F (stereo not shown) [Compound 487] is greater than or equal to 50. condition not met

Answer whether Galium plant response rating of COc1ccc(NC(=O)C2C(=O)NCC2c2ccc(F)c(F)c2)c(F)c1 (stereo not shown) [Compound 413] is greater than or equal to 50. condition not met

Answer whether Galium plant response rating of O=C1NCC(c2cc(F)cc(C(F)(F)F)c2)C1C(=O)Nc1ccc(F)cc1F (stereo not shown) [Compound 490] is greater than or equal to 50. condition not met

Answer whether Galium plant response rating of CCc1ccc(C2CNC(=O)C2C(=O)Nc2ccccc2S(C)(=O)=O)cc1 (stereo not shown) [Compound 468] is greater than or equal to 50. condition not met

Answer whether Galium plant response rating of O=C1NCC(c2cc(F)cc(Cl)c2)C1C(=O)Nc1ccccc1F (stereo not shown) [Compound 491] is greater than or equal to 50. condition not met

Answer whether Galium plant response rating of CN1CC(c2ccc3c(c2)OC(F)(F)O3)C(C(=O)Nc2cccc(F)c2F)C1=O (stereo not shown) [Compound 442] is greater than or equal to 50. condition met

Answer whether Galium plant response rating of Cc1ccc(C2CN(C)C(=O)C2C(=O)Nc2ccccc2F)cc1F (stereo not shown) [Compound 465] is greater than or equal to 50. condition met

Answer whether Galium plant response rating of CS(=O)(=O)c1ccccc1NC(=O)C1C(=O)NCC1c1ccc(C2CC2)cc1 (racemic) [Compound 502] is greater than or equal to 50. condition not met
